Reference source: ChEMBL document CHEMBL4689842

# Population Apoptotic (%) listing for each entry below
Test system: HEK-293T
Experiment: Multiplex assay against HEK293T
Assay type: toxicity, cell-based
Details: human, 48 h, 10 µM, compound concentration 10 uM, replicate 1
measured-endpoint: Population Apoptotic (%)

| compound | readout-value |
| --- | --- |
| C=CC(=O)Nc1ccc2ncnc(Nc3ccc(OCc4cccc(F)c4)c(Cl)c3)c2c1.Cc1ccc(S(=O)(=O)O)cc1 | 51 |
| Cc1csc2c(N[C@@H](C)CN3CCN(S(=O)(=O)c4ccc(Cl)c(Cl)c4)CC3)ncnc12 | 47 |
| COc1cccc([C@@H](C)NCCCc2ccccc2Cl)c1.Cl [TECALCET HYDROCHLORIDE] | 73 |
| COc1cc(-n2cnc3cc(-c4ccc(Cl)cc4)sc3c2=O)ccc1OCCN1CCCC1 | 76 |
| C[C@@]1(C(=O)Nc2ccc(F)nc2)CCCN1c1nc(Nc2cc(C3CC3)n[nH]2)c2cccn2n1 | 65 |
| CN1CCN(CCOc2cc(OC3CCOCC3)c3c(Nc4c(Cl)ccc5c4OCO5)ncnc3c2)CC1 | 73 |
| CC[C@H](C)C(=O)O[C@H]1C[C@@H](C)C=C2C=C[C@H](C)[C@H](CC[C@@H]3C[C@@H](O)CC(=O)O3)[C@H]21 | 42 |
| NC(=O)Nc1cc(-c2cccc(F)c2)sc1C(=O)N[C@H]1CCCNC1 | 75 |
| CN1CCC[C@@H]1CCO[C@](C)(c1ccccc1)c1ccc(Cl)cc1.O=C(O)/C=C/C(=O)O [CLEMASTINE FUMARATE] | 86 |
| O=C1NCN(c2ccccc2)C12CCN(CCCOc1ccc(F)cc1)CC2 [SPIRAMIDE] | 59 |
| CCOCCn1cc(C(=O)Nc2ccc(-n3nc(-c4cccnc4)cc3C(F)(F)F)cn2)ccc1=O | 59 |
| CC(C)(O)CNc1ncc(-c2ccnc(Nc3ccnc(Cl)c3)n2)c(CC2CC2)n1 | 72 |
| Cn1cc(-c2[nH]c3cc(NC(=O)[C@H](N)C4CCCCC4)cc4c3c2C=NNC4=O)cn1 | 72 |
| Cl.N#Cc1ccc2[nH]cc(CCCCN3CCN(c4ccc5oc(C(N)=O)cc5c4)CC3)c2c1 [VILAZODONE HYDROCHLORIDE] | 94 |
| Cc1nc(-c2ccc(-c3ccc(C(=O)N4CCc5cc6c(cc54)C4(CCN(C)CC4)CO6)cc3)c(C)c2)no1 | 92 |
| Cc1c(-c2ccc(O)cc2)n(Cc2ccc(OCCN3CCCCCC3)cc2)c2ccc(O)cc12 | 91 |

---

Test system: Fibroblast
Assay: Multiplex assay against human fibroblast
Format: toxicity, cell-based
Conditions: 48 h, 1 µM, compound concentration 1 uM, replicate 2
measured-endpoint: Population Mitochondria Different-Phenotype (%)

| molecule | unit-string | readout-value |
| --- | --- | --- |
| Cc1cc(C)cc(-c2cnc3cc(Cl)c(-c4cccc(O)c4)cc3c2OCCCN)c1 | % | 9 |
| CN(C)C(=O)N[C@H]1CC[C@H](CCN2CCN(c3cccc(Cl)c3Cl)CC2)CC1.Cl [CARIPRAZINE HYDROCHLORIDE] | % | 3 |
| Cl.N#Cc1ccc2[nH]cc(CCCCN3CCN(c4ccc5oc(C(N)=O)cc5c4)CC3)c2c1 [VILAZODONE HYDROCHLORIDE] | % | 1 |
| OC1(c2ccc(Cl)cc2)CCN(Cc2c[nH]c3ccccc23)CC1 | % | 1 |

---

# maps each entry to its Population Mitotic Cells (%)
Test system: U2OS
Assay: Multiplex assay against U2OS
Format: toxicity, cell-based
Settings: human, 12 h, 10 µM, compound concentration 10 uM, replicate 1

| compound | unit-string | Population Mitotic Cells (%) |
| --- | --- | --- |
| CN1CCN(CCOc2cc(OC3CCOCC3)c3c(Nc4c(Cl)ccc5c4OCO5)ncnc3c2)CC1 [SARACATINIB] | % | 36 |
| CN(C)c1ncnc(-c2ccc3nc(Nc4cc(CN5CCN(C(=O)CC(F)(F)F)CC5)ccn4)[nH]c3c2)c1Cl [BAY-440] | % | 76 |
| CC(C)(O)CNc1ncc(-c2ccnc(Nc3ccnc(Cl)c3)n2)c(CC2CC2)n1 | % | 50 |
| Cc1csc2c(N[C@@H](C)CN3CCN(S(=O)(=O)c4ccc(Cl)c(Cl)c4)CC3)ncnc12 | % | 46 |
| c1cn2cc(-c3ccc4cn[nH]c4c3)nc(Nc3ccc(N4CCOCC4)cc3)c2n1 [ENTOSPLETINIB] | % | 23 |
| COc1cc2nccc(Oc3ccc(NC(=O)Nc4cc(C)on4)c(Cl)c3)c2cc1OC.O | % | 30 |
| CC(C)NCC(O)COc1ccc(CCOCC2CC2)cc1.Cl (stereo unspecified) [BETAXOLOL HYDROCHLORIDE] | % | 47 |
| Cn1cc(-c2[nH]c3cc(NC(=O)[C@H](N)C4CCCCC4)cc4c3c2C=NNC4=O)cn1 | % | 52 |
| Cc1nc(-c2ccc(-c3ccc(C(=O)N4CCc5cc6c(cc54)C4(CCN(C)CC4)CO6)cc3)c(C)c2)no1 [SB-224289] | % | 37 |
| Cc1[nH]c(/C=C2\C(=O)Nc3ccc(S(=O)(=O)N(C)c4cccc(Cl)c4)cc32)c(C)c1C(=O)N1CCN(C)CC1 | % | 40 |
| COc1ncc(-c2ccc3nccc(-c4ccnnc4)c3c2)cc1NS(=O)(=O)c1ccc(F)cc1F [OMIPALISIB] | % | 41 |
| Cc1nc(-c2cn3c(n2)-c2ccc(-c4cnn(C(C)(C)C(N)=O)c4)cc2OCC3)n(C(C)C)n1 [TASELISIB] | % | 55 |
| Cc1nc(Nc2n[nH]c3c2CN(C(=O)N[C@H](CN(C)C)c2ccccc2)C3(C)C)c2sccc2n1 [PF-03758309] | % | 46 |
| CNc1nc(NCc2ccc(NS(C)(=O)=O)cc2Cl)cc(-c2ccccn2)n1 | % | 38 |
| O=C1NCN(c2ccccc2)C12CCN(CCCOc1ccc(F)cc1)CC2 [SPIRAMIDE] | % | 63 |
| CN1CCCC(n2nc(Cc3ccc(Cl)cc3)c3ccccc3c2=O)CC1.Cl (stereo unspecified) [AZELASTINE HYDROCHLORIDE] | % | 36 |
| CC[C@H](C)C(=O)O[C@H]1C[C@@H](C)C=C2C=C[C@H](C)[C@H](CC[C@@H]3C[C@@H](O)CC(=O)O3)[C@H]21 [LOVASTATIN] | % | 68 |
| CN(C)CC#Cc1ccc(OCCCc2sc(N3CCc4cccc(C(=O)Nc5nc6ccccc6s5)c4C3)nc2C(=O)O)c(F)c1 [A-1155463] | % | 38 |
| Cc1c(-c2ccc(O)cc2)n(Cc2ccc(OCCN3CCCCCC3)cc2)c2ccc(O)cc12 [BAZEDOXIFENE] | % | 58 |
| Cc1cc(C)cc(-c2cnc3cc(Cl)c(-c4cccc(O)c4)cc3c2OCCCN)c1 | % | 9 |
| C=CC(=O)Nc1cccc(C(=O)Nc2ccc(Nc3cc(-c4[nH]c(SC)nc4C)ccn3)cc2)c1 | % | 59 |
| COc1cc(-n2cnc3cc(-c4ccc(Cl)cc4)sc3c2=O)ccc1OCCN1CCCC1 | % | 27 |
| Cl.N#Cc1ccc2[nH]cc(CCCCN3CCN(c4ccc5oc(C(N)=O)cc5c4)CC3)c2c1 [VILAZODONE HYDROCHLORIDE] | % | 60 |
| CN(C)C(=O)N[C@H]1CC[C@H](CCN2CCN(c3cccc(Cl)c3Cl)CC2)CC1.Cl [CARIPRAZINE HYDROCHLORIDE] | % | 50 |
| CN1CCN(c2ccc(OC(F)(F)F)c(Nc3ncc4c(n3)-c3c(c(C(N)=O)nn3CCO)CC4)c2)CC1 [ONVANSERTIB] | % | 27 |
| OC1(c2ccc(Cl)cc2)CCN(Cc2c[nH]c3ccccc23)CC1 | % | 47 |
| CN(C)C(=O)/C(C#N)=C/c1ccc(-c2nc3cnc4[nH]ccc4c3n2C2CCCCC2)o1 | % | 80 |
| COc1cccc([C@@H](C)NCCCc2ccccc2Cl)c1.Cl [TECALCET HYDROCHLORIDE] | % | 37 |
| C[C@@H](NCCCc1cccc(C(F)(F)F)c1)c1cccc2ccccc12.Cl [CINACALCET HYDROCHLORIDE] | % | 58 |
| CN1CCC[C@@H]1CCO[C@](C)(c1ccccc1)c1ccc(Cl)cc1.O=C(O)/C=C/C(=O)O [CLEMASTINE FUMARATE] | % | 50 |
| C=CC(=O)Nc1cc2c(Nc3ccc(F)c(Cl)c3)ncnc2cc1OCCCN1CCOCC1.Cl.Cl [CANERTINIB DIHYDROCHLORIDE] | % | 77 |

---

Tested on: Fibroblast
Assay: Multiplex assay against human fibroblast
Type: toxicity, cell-based
Settings: 48 h, 10 µM, compound concentration 10 uM, replicate 1
Reported Population Fragmented Nuclei (%) values follow for various compounds
measured-endpoint: Population Fragmented Nuclei (%)

| compound | measured-endpoint | unit-string | readout-value |
| --- | --- | --- | --- |
| OC1(c2ccc(Cl)cc2)CCN(Cc2c[nH]c3ccccc23)CC1 | Population Fragmented Nuclei (%) | % | 36 |
| c1cn2cc(-c3ccc4cn[nH]c4c3)nc(Nc3ccc(N4CCOCC4)cc3)c2n1 [ENTOSPLETINIB] | Population Fragmented Nuclei (%) | % | 14 |
| CC[C@H](C)C(=O)O[C@H]1C[C@@H](C)C=C2C=C[C@H](C)[C@H](CC[C@@H]3C[C@@H](O)CC(=O)O3)[C@H]21 [LOVASTATIN] | Population Fragmented Nuclei (%) | % | 58 |
| Cn1cc(-c2[nH]c3cc(NC(=O)[C@H](N)C4CCCCC4)cc4c3c2C=NNC4=O)cn1 | Population Fragmented Nuclei (%) | % | 52 |
| CN1CCCC(n2nc(Cc3ccc(Cl)cc3)c3ccccc3c2=O)CC1.Cl (stereo not drawn) [AZELASTINE HYDROCHLORIDE] | Population Fragmented Nuclei (%) | % | 40 |
| NC(=O)Nc1cc(-c2cccc(F)c2)sc1C(=O)N[C@H]1CCCNC1 [AZD-7762] | Population Fragmented Nuclei (%) | % | 59 |
| CNCc1ccccc1-c1csc([C@H](C)Nc2nc(C)nc3cc(OC)c(OC)cc23)c1 [BAY-294] | Population Fragmented Nuclei (%) | % | 40 |
| CC(C)NCC(O)COc1ccc(CCOCC2CC2)cc1.Cl (stereo not drawn) [BETAXOLOL HYDROCHLORIDE] | Population Fragmented Nuclei (%) | % | 41 |
